Measured pKd by item
- system: T1, SinR (Bacillus subtilis, UniProt P06533 1-111)
- T1 sequence: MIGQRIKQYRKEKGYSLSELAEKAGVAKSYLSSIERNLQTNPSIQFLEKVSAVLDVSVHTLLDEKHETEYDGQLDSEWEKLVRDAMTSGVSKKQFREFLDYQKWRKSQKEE
- assay overview: fluorescence anisotropy; FA: 10 mM Hepes pH 8.0, 100 mM NaCl, 1 mM DTT, 1 mM EDTA, 5 nM HEX-DNA, 25 C; SPR: 10 mM Hepes pH 8.0, 150 mM NaCl, 3 mM EDTA, 0.05% P20
- experimental parameters: protein: recombinant; tags: N-terminal Gly-Pro-Ala left after 3C cleavage of His6 tag; chain copies: 4; label: 5' HEX on one strand; 22 bp
Note: pKd values are expressed as the negative base-10 logarithm of concentration in M.

Exercise: Give a short answer stating reported pKd for tandem repeat SinRBM duplex (dsDNA) DNA 1: GTCGTTCTCTCGTTCTCTATAA DNA 2: TTATAGAGAACGAGAGAACGAC .
Key: 5.43

Now look at this entry.
Exercise: Identify pKd associated with the binder single-site SinRBM duplex (dsDNA) DNA 1: AATTTTTCGTTCTTTATAAAAT DNA 2: ATTTTATAAAGAACGAAAAATT
Key: 5.55

Data provenance is paper PMC3163267.
